Please respond with reported pIC50 for every item in the list.
- STUDY_TARGET: cIAP1-BIR3 (Homo sapiens (Human))
- Sequence (Q13490 253-363): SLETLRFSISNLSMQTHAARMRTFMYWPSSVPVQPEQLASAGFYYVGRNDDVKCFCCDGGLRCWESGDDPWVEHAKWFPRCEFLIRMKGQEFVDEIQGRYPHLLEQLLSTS
- PROTOCOL_TEXT: BIR binding assay (FRET competition), cIAP1 BIR3
pIC50: −log10 of the molar value.

Sample records with pIC50:
INPUT_SMILES	pIC50
C[C@@H]1CN(CC(=O)N2CC(C)(C)c3[nH]c(=O)c(Cc4ccc(F)cc4)cc32)[C@@H](CN2CCC[C@H](NC(=O)Cc3ccc(CC(=O)N[C@H]4CCCN(C[C@H]5CN[C@H](C)CN5CC(=O)N5CC(C)(C)c6[nH]c(=O)c(Cc7ccc(F)cc7)cc65)C4)cc3)C2)CN1	6.30 to 7.50
Cc1ccc(Cc2cc3c([nH]c2=O)C(C)(C)CN3C(=O)CN2C[C@@H](C)NC[C@@H]2CN2CCO[C@H](C(=O)NCc3ccc(CNC(=O)[C@@H]4CN(C[C@H]5CN[C@H](C)CN5CC(=O)N5CC(C)(C)c6[nH]c(=O)c(Cc7ccc(C)cc7)cc65)CCO4)cc3)C2)cc1	8.10 to 8.86
C[C@@H]1CN(CC(=O)N2CC(C)(C)c3[nH]c(=O)c(Cc4ccc(F)cc4)cc32)[C@@H](CN2CCN(CCc3cn(CCC(=O)N4CCN(C[C@H]5CN[C@H](C)CN5CC(=O)N5CC(C)(C)c6[nH]c(=O)c(Cc7ccc(F)cc7)cc65)[C@H](C)C4)nn3)C[C@H]2C)CN1	7.80 to 8.10
C[C@@H]1CN(CC(=O)N2CC(C)(C)c3[nH]c(=O)c(Cc4ccc(F)cc4)cc32)[C@@H](CN2CCO[C@H](C(=O)N(C)CCCCN(C)C(=O)[C@@H]3CN(C[C@H]4CN[C@H](C)CN4CC(=O)N4CC(C)(C)c5[nH]c(=O)c(Cc6ccc(F)cc6)cc54)CCO3)C2)CN1	7.80 to 8.10
C[C@@H]1CN(CC(=O)N2CC(C)(C)c3[nH]c(=O)c(Cc4ccc(Cl)cc4C#N)cc32)[C@@H](CN2CCO[C@H](C(=O)NCc3ccc(CNC(=O)[C@@H]4CN(C[C@H]5CN[C@H](C)CN5CC(=O)N5CC(C)(C)c6[nH]c(=O)c(Cc7ccc(Cl)cc7C#N)cc65)CCO4)cc3)C2)CN1	8.10 to 8.86
C[C@@H]1CN(CC(=O)N2CC(C)(C)c3ncc(Cc4ccc(Br)cc4)cc32)[C@@H](CN2CCO[C@H](COc3cccc(OC[C@@H]4CN(C[C@H]5CN[C@H](C)CN5CC(=O)N5CC(C)(C)c6ncc(Cc7ccc(Br)cc7)cc65)CCO4)c3)C2)CN1	6.30 to 7.50

For the next question, use this molecule.
Asked: Look up pIC50 of CC(C)c1ccccc1Cc1cc2c([nH]c1=O)C(C)(C)CN2C(=O)CN1C[C@@H](C)NC[C@@H]1CN1CCO[C@H](C(=O)NCc2ccc(CNC(=O)[C@@H]3CN(C[C@H]4CN[C@H](C)CN4CC(=O)N4CC(C)(C)c5[nH]c(=O)c(Cc6ccccc6C(C)C)cc54)CCO3)cc2)C1 and report it.
Given back: 6.30 to 7.50
